# Target: BLMHM (BLM helicase module) (Homo sapiens, UniProt P54132 642-1290)
# Sequence (P54132 642-1290): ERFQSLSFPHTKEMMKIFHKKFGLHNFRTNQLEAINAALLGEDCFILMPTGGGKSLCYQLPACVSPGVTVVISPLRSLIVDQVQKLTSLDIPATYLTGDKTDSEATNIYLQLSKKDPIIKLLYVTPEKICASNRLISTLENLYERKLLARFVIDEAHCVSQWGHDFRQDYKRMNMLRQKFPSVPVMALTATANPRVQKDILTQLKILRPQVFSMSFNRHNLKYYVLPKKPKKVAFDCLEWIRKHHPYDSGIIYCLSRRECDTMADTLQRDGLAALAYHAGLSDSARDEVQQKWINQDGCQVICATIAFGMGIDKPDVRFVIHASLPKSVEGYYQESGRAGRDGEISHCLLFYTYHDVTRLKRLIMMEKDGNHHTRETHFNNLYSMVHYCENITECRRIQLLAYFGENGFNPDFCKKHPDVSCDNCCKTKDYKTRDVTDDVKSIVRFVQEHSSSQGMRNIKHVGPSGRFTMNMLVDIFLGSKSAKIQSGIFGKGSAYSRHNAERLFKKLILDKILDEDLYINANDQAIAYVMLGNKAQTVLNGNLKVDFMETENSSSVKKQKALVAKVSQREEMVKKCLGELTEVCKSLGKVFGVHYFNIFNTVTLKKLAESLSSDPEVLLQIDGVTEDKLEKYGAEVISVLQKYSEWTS
# Measurement Description: stopped-flow mdADP fluorescence amplitude titration
Recorded Endpoint: Kd

{"columns": ["Binder", "Readout Value"],
 "data": [
  ["dT54 (ssDNA) DNA: TTTTTTTTTTTTTTTTTTTTTTTTTTTTTTTTTTTTTTTTTTTTTTTTTTTTTT", "< 100 nM"]
]}

Data origin, for the record: paper PMC2910040
